- system: MMP-1 (Homo sapiens, UniProt P03956)
- Sequence (P03956 100-469): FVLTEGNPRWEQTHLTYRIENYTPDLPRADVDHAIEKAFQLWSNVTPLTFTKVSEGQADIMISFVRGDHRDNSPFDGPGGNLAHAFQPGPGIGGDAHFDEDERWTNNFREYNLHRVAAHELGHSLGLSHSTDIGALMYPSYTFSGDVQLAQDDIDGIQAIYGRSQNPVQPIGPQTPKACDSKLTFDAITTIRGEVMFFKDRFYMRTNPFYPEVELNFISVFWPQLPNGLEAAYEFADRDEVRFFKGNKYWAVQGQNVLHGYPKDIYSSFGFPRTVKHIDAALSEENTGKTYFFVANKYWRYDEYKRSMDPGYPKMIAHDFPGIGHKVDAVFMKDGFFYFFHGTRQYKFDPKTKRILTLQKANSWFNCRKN
outcomeMeasure: IC50

[
  {
    "compound": "O=C(NCCC[C@@H](NS(=O)(=O)c1ccc(OCc2cc(Br)cc(Br)c2)cc1)C(=O)NO)NCCC[C@@H](NS(=O)(=O)c1ccc(OCc2cc(Br)cc(Br)c2)cc1)C(=O)NO",
    "reportedMeasurement": "348 µM"
  },
  {
    "compound": "O=C(NCCC[C@@H](NS(=O)(=O)c1ccc(OCc2cc(Br)cc(Br)c2)cc1)C(=O)NO)c1cccc(C(=O)NCCC[C@@H](NS(=O)(=O)c2ccc(OCc3cc(Br)cc(Br)c3)cc2)C(=O)NO)c1",
    "reportedMeasurement": "> 200 µM"
  }
]

Turning to the following compound.
Incoming: Give reported IC50 value for NC(=O)NCCC[C@@H](NS(=O)(=O)c1ccc(OCc2cc(Br)cc(Br)c2)cc1)C(=O)NO [JG26, reference compound]
Outgoing: > 500 µM
